system: Chorioallantoic membrane; test: Antiangiogenic activity in chicken chorioallantoic membrane assessed as inhibition of VEGF-induced blood vessel formation at 0.01 nmol/CAM treated 30 mins after VEGF addition measured after 3 days relative to control; type: functional, cell membranes; settings: Gallus gallus
# inhibition per record follows

- smiles_input: "Cc1nc(NC(=O)CCCCl)c(C)c(C)c1O"
  inhibition / %: 70.2
- smiles_input: "CC(=O)Nc1ccc(O)cc1"
  inhibition / %: 77.9
- smiles_input: "CCN(CC)CCNC(=O)c1c(C)[nH]c(/C=C2\\C(=O)Nc3ccc(F)cc32)c1C"
  inhibition / %: 88.8
- smiles_input: "Cc1nc(NC(=O)C(C)(C)C)c(C)c(C)c1O"
  inhibition / %: 73.2
- smiles_input: "COc1ccc(C(=O)Nc2nc(C)c(O)c(C)c2C)cc1"
  inhibition / %: 69.7
- smiles_input: "Cc1nc(NC(=O)C2CCCCC2)c(C)c(C)c1O"
  inhibition / %: 76.3
- smiles_input: "CN(C)c1ccc(/C=C2\\C(=O)Nc3ccccc32)cc1"
  inhibition / %: 78
- smiles_input: "CCCCCCCC(=O)Nc1nc(C)c(O)c(C)c1C"
  inhibition / %: 74.7
- smiles_input: "CC(=O)Nc1nc(C)c(O)c(C)c1C"
  inhibition / %: 84.8
- smiles_input: "Cc1nc(NC(=O)c2cccs2)c(C)c(C)c1O"
  inhibition / %: 74.8
- smiles_input: "Cc1nc(NC(=O)C2CCCC2)c(C)c(C)c1O"
  inhibition / %: 81.8
- smiles_input: "CCCCCCCCCCCC(=O)Nc1nc(C)c(O)c(C)c1C"
  inhibition / %: 57.4
- smiles_input: "Cc1nc(NC(=O)CCc2ccccc2)c(C)c(C)c1O"
  inhibition / %: 74.2
- smiles_input: "Cc1nc(NC(=O)CC(C)C)c(C)c(C)c1O"
  inhibition / %: 75.6
- smiles_input: "Cc1nc(NC(=O)c2ccc(F)cc2)c(C)c(C)c1O"
  inhibition / %: 75.3
- smiles_input: "Cc1nc(NC(=O)c2ccc3c(c2)OCO3)c(C)c(C)c1O"
  inhibition / %: 64.8
- smiles_input: "Cc1nc(NC(=O)c2ccc(C(C)(C)C)cc2)c(C)c(C)c1O"
  inhibition / %: 74.2
- smiles_input: "CCCCCCCCCCCCCCCC(=O)Nc1nc(C)c(O)c(C)c1C"
  inhibition / %: 59.9
- smiles_input: "Cc1nc(NC(=O)Cc2ccccc2)c(C)c(C)c1O"
  inhibition / %: 69.6
- smiles_input: "Cc1nc(NC(=O)c2ccccc2)c(C)c(C)c1O"
  inhibition / %: 77.3
- smiles_input: "Cc1nc(NC(=O)c2cccc3ccccc23)c(C)c(C)c1O"
  inhibition / %: 75.8
- smiles_input: "Cc1nc(NC(=O)C(C)C)c(C)c(C)c1O"
  inhibition / %: 53.2

* * *

system: A549; assay: Antitumor activity in human A549 cells inoculated with chicken chorioallantoic membrane assessed as inhibition of tumor weight at 0.1 pmol/CAM after 5 days; type: functional

- smiles_input: "CCCCCCCCCCCC(=O)Nc1nc(C)c(O)c(C)c1C"
  inhibition (INH) / %: 31.3
- smiles_input: "CC(=O)Nc1nc(C)c(O)c(C)c1C"
  inhibition (INH) / %: 37.9
- smiles_input: "CN(C)c1ccc(/C=C2\\C(=O)Nc3ccccc32)cc1"
  inhibition (INH) / %: 23.4
- smiles_input: "Cc1nc(NC(=O)C2CCCC2)c(C)c(C)c1O"
  inhibition (INH) / %: 45.1

Hello, the source for this data is ChEMBL document CHEMBL3351550, in case you need it.
